Data origin: ChEMBL document CHEMBL5137044

system: Human immunodeficiency virus 1; experiment: Antiviral activity against drug-resistant HIV-1 Y188L mutant infected in human MT4 cells assessed as reduction in virus-induced cytopathic effect incubated for 5 days by MTT assay; format: functional, organism-based; conditions: Human immunodeficiency virus 1, Y188L mutant, MT4, 120 h
pEC50: −log10 of the molar value.
The entries below are paired with their reported pEC50.
Experimental endpoint: pEC50

>>> print(df.to_string())
                                   compound  result
0  Cc1c(C(C#N)c2ccc(F)c(C#N)c2)nc(SC(C)C)[nH]c1=O (stereo unspecified)  < 3.78
1  COc1cc(OC)cc(C(C#N)c2nc(SC(C)C)[nH]c(=O)c2C)c1 (stereo unspecified)  < 4.39
2  Cc1c(C(C#N)c2cccc(F)c2)nc(SC(C)C)[nH]c1=O (stereo unspecified)  < 3.70
3  Cc1c(C(C#N)c2cccnc2Cl)nc(SC(C)C)[nH]c1=O (stereo unspecified)  < 3.60
4           Cc1ccnc2c1NC(=O)c1cccnc1N2C1CC1  < 4.82
5  Cc1ccccc1C(C#N)c1nc(SC(C)C)[nH]c(=O)c1C (stereo unspecified)    4.20
